Biological target: Thioredoxin reductase 1 (TrxR1) (Homo sapiens)
Construct: gene TXNRD1
Sequence (Q16881 whole entry): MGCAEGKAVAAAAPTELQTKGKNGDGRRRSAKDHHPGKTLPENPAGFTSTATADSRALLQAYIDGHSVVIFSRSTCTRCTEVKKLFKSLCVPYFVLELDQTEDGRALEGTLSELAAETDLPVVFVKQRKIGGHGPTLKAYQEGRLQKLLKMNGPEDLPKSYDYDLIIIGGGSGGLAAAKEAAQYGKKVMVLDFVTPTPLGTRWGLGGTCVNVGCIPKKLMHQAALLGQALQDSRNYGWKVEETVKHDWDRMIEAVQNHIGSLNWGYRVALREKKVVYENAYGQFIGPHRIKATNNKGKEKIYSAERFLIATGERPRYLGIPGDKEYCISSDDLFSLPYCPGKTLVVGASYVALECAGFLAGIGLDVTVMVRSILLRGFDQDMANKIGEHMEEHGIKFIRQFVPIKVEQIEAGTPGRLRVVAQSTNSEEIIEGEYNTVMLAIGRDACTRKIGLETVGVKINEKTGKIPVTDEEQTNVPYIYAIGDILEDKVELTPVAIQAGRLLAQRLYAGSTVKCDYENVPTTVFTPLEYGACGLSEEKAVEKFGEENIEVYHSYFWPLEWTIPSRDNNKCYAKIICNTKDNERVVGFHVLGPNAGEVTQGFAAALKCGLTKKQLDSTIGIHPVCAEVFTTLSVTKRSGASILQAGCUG
Property name: pKd
Please treat pKd as minus the base-10 logarithm of the molar concentration.

INPUT: # pKd lookup, item CC[P](CC)(CC)=[Au][S][C@@H]1O[C@H](COC(C)=O)[C@@H](OC(C)=O)[C@H](OC(C)=O)[C@H]1OC(C)=O [auranofin]
OUTPUT: 5.29

----------
Target: Thioredoxin reductase 1 (TrxR1) (Homo sapiens)
Construct: gene TXNRD1
Assay: biochemical
Property name: pKd
Please treat pKd as minus the base-10 logarithm of the molar concentration.

INPUT: # pKd lookup, item O=c1c2ccccc2[se]n1CCCCn1[se]c2ccccc2c1=O
OUTPUT: 5.61
